- ASSAY INFO: Pharmacokinetics in female BALB/c nude mice bearing A375 xenografts, 1 day dosing (PK and PD study): plasma, tumor and brain concentrations, AUC
- Format: in vivo
- EXPERIMENTAL CONTEXT: mouse, plasma, po, 2 mg/kg, 2 mg/kg p.o. TID × 1 day; post 3rd dose; 10 h; read-out: Mean Concentration in Plasma ± SEM
ASSAY READOUT: concentration at 10 h (ng/mL)
Hi! Could you send only the number? It should be in ng/mL, unit omitted.

**Query** Quickly give me recorded concentration at 10 h for CCN(C)S(=O)(=O)Nc1ccc(F)c(Oc2ccc3ncn([C@H]4COC5(CCN(C6CC7(C6)CN(c6cc8c(cc6F)c(N6CCC(=O)NC6=O)nn8C)C7)CC5)C4)c(=O)c3c2)c1C#N
**Result** 1250
